Target: L-lactate dehydrogenase A chain (Homo sapiens, UniProt P00338)
Quick list: IC50 per entry.

[
  {
    "compound_smiles": "C[C@@H]1O[C@@H](OC[C@H]2O[C@@H](Oc3c(-c4ccc(O)c(O)c4)oc4cc(O)cc(O)c4c3=O)[C@H](O[C@@H]3OC[C@](O)(COC(=O)c4ccccc4)[C@H]3O)[C@@H](O)[C@@H]2O)[C@H](O)[C@H](O)[C@H]1O",
    "IC50": "> 500 µM"
  },
  {
    "compound_smiles": "C[C@@H]1O[C@@H](OC[C@H]2O[C@@H](Oc3c(-c4ccc(O)c(O)c4)oc4cc(O)cc(O)c4c3=O)[C@H](O)[C@@H](O)[C@@H]2O)[C@H](O)[C@H](O)[C@H]1O",
    "IC50": "> 500 µM"
  },
  {
    "compound_smiles": "O=C(OC[C@H]1O[C@@](CO)(O[C@H]2O[C@H](CO)[C@@H](O)[C@H](O[C@@H]3O[C@H](CO)[C@@H](O)[C@H](O)[C@H]3O)[C@H]2O)[C@@H](O)[C@@H]1O)c1ccccc1",
    "IC50": "> 500 µM"
  },
  {
    "compound_smiles": "COc1cc(/C=C/C(=O)OC[C@H]2O[C@H](O[C@]3(CO)O[C@H](CO)[C@@H](O)[C@@H]3OC(=O)/C=C/c3cc(OC)c(O)c(OC)c3)[C@H](O)[C@@H](O)[C@@H]2O)cc(OC)c1O",
    "IC50": "90.4 µM"
  },
  {
    "compound_smiles": "CC(=O)OC[C@H]1O[C@H](O[C@]2(CO)O[C@H](COC(=O)c3ccccc3)[C@@H](O)[C@@H]2O)[C@H](O)[C@@H](O[C@@H]2O[C@H](CO)[C@@H](O)[C@H](O)[C@H]2O)[C@@H]1O",
    "IC50": "> 500 µM"
  },
  {
    "compound_smiles": "C[C@@H]1O[C@@H](OC[C@H]2O[C@@H](Oc3c(-c4ccc(O)c(O)c4)oc4cc(O)cc(O)c4c3=O)[C@H](O[C@@H]3OC[C@](O)(CO)[C@H]3O)[C@@H](O)[C@@H]2O)[C@H](O)[C@H](O)[C@H]1O",
    "IC50": "> 500 µM"
  }
]
